experiment: MMV: MTT Cytotoxicity Assay Day 7 pi of Assay #7 (compound washed out Day 1 pi), U87-CD4-CXCR4 cells, % cell death @ 5mM compound; format: toxicity, cell-based; conditions: human, u87-cd4-cxcr4, 5000 µM
Measured Quantity: % Cell Death
Output spec: single numeric token, no unit.

*Q* // % Cell Death lookup, key: Cc1c(C)n(CC(O)CNC2CCCCC2C)c2ccccc12 (stereo unspecified)
*A* -17

*Q* Then "CCOc1ccc(Nc2ccnc3cc(Cl)ccc23)cc1" ?
*A* 47

*Q* One more compound: "COc1ccc2c(=O)cc(C(Cl)(Cl)Cl)oc2c1"
*A* 23

*Q* How about "CCCCNCC(O)(c1ccc(Cl)cc1)c1ccc(Cl)cc1" ?
*A* -18

*Q* // query: "COc1ccc(OC)c(C2C3=C(CC(C)(C)CC3=O)N(c3ccc(Cl)c(Cl)c3)C3=C2C(=O)CC(C)(C)C3)c1"
*A* 5

*Q* Another compound to look at: "COc1cc2c(cc1OC)C1=NNC(=O)C1=NC(C)(C)C2"
*A* 95

====

Field: % Cell Death. Provide a value for each of the compounds that follow.
assay: MMV: MTT Cytotoxicity Assay Day 7 pi of Assay #6 (compound washed out Day 1 pi), U87-CD4-CCR5 cells, % cell death @ 5mM compound; format: toxicity, cell-based; settings: human, u87-cd4-ccr5, 5000 µM
// return just the number, without any unit appended

*Q* Recorded % Cell Death for CC(C)(C)CC(C)(C)NCC(O)COc1ccc(Cl)cc1Cl (stereo not drawn) , please?
*A* -12

*Q* COc1ccc2c(c1)OC(O)(C(F)(F)C(F)(F)F)CC2=O (stereo not drawn) ?
*A* 37

*Q* Check "Cc1ccc(-c2nc3ccccc3o2)cc1NCc1cc(Cc2ccccc2)ccc1O" too.
*A* -7

*Q* Now try "O=C(Nc1cccc(-c2nc3ccccc3[nH]2)c1)c1cccc(NC(=O)c2ccco2)c1" .
*A* 11

*Q* Try this compound too: "COc1ccc(-n2ccnc2SCC(=O)Nc2cc(C)ccc2C)c(OC)c1"
*A* 32

*Q* Subsequent entry: "COc1ccc2nc(C)cc(Nc3cccc(O)c3)c2c1.Cl"
*A* 10

*Q* Input "O=C(Nc1ccc(CN2CCOCC2)cc1)c1ccc(-c2ccc(Br)cc2)o1"
*A* 14

*Q* Also, "O=C(NC1CCN(Cc2ccccc2)CC1)c1cc2nc(-c3ccc(Cl)s3)cc(C(F)(F)F)n2n1" please.
*A* -12

*Q* Subsequent entry: "Cc1c(C)n(Cc2ccc(F)cc2)c2ccc(C(=O)NCc3ccco3)cc12"
*A* 78

*Q* Again, but for "COc1ccccc1C(=O)ON=C(N)Cc1cccc2ccccc12"
*A* -17

*Q* Now give it for "CCOC(=O)c1c(C)n(-c2ccc(Cl)cc2)c2ccc(OC(=O)C=Cc3ccccc3)cc12" too.
*A* 4

*Q* Param item: CCC1(C)CC(CCNCc2ccccc2O)(c2ccc(C)cc2)CCO1 (stereo not drawn)
*A* 9

*Q* Do the same for O=C(O)C1Cc2c([nH]c3ccccc23)C(c2ccc(Cl)cc2Cl)N1 (stereo not drawn) please
*A* 15

*Q* Entry to check: "COc1nc(Nc2ccc(C(C)C)cc2)nc(OC)n1"
*A* 33

*Q* Repeat with "CCOC(=O)c1c[nH]c2c(CC)cccc2c1=O"
*A* 36

*Q* And then CCOC(=O)C1=C(c2ccccc2)N=c2sc(=Cc3cc(C)n(-c4ccc(F)cc4)c3C)c(=O)n2C1c1cccc(OC)c1OC (stereo not drawn) , what is it?
*A* 5

*Q* Next entry: "COc1cc(C(=O)ON=C(N)Cc2cccc3ccccc23)cc(OC)c1OC"
*A* -13

*Q* Another: Cc1cc(NC(=O)C2c3ccccc3C(=O)N(CC(C)C)C2c2cccs2)no1 (stereo not drawn)
*A* 55

*Q* Same thing, different compound: "CCOC(=O)c1cnc2c(C)cc(C)cc2c1Nc1ccc(OC)c(OC)c1"
*A* 19

*Q* Again, but for O=C(NC(c1ccccc1)c1ccc2cccnc2c1O)c1ccccc1 (stereo not drawn)
*A* 43

*Q* Also CCC(c1ccccc1)c1nn2c(-c3cccs3)nnc2s1 (stereo not drawn) , if possible.
*A* 18

*Q* What would you report for Cc1sc(NC(=O)c2ccco2)c(C(c2cccnc2)N2CCC(Cc3ccccc3)CC2)c1C (stereo not drawn) ?
*A* 81

*Q* Moving on to "Oc1ccc2ccccc2c1CNc1nc2ccccc2[nH]1"
*A* -27

*Q* Same again, this time with Cl.N=c1n(CCN2CCCCC2)c2ccccc2n1CC(O)c1cccc(Br)c1 (stereo not drawn)
*A* 10

*Q* "CC(=O)c1ccc(NC(=O)CSc2nc(-c3ccccc3Cl)ns2)cc1" , same question.
*A* 7

*Q* Can you check "CCc1ccc(Nc2cc(C)nc3nc(C)nn23)cc1" next?
*A* 4

*Q* Here is the next compound: "Oc1ccc(C(=C(Cl)Cl)c2ccc(O)cc2)cc1"
*A* -14

*Q* // same read-out, input: "COc1ccc(CCn2c(=N)c(C(=O)NCc3cccnc3)cc3c(=O)n4cccc(C)c4nc32)cc1"
*A* 32

*Q* One more compound: "O=C(Nc1cccc(C(F)(F)F)c1)c1cc(Cl)ccc1O"
*A* 100

*Q* Now consider "COc1ccc(C=C2SC(Nc3ccc(F)cc3)=NC2=O)c(OC)c1" and answer again.
*A* -49

*Q* Can you check Oc1ccccc1CN1CCC2(CCCN(Cc3ccccc3F)C2)C1 (stereo not drawn) next?
*A* 36

*Q* # iterate: "CCOC(=O)c1cnc2ccc(Cl)cc2c1NCCCN(C)C"
*A* 3

*Q* Try this compound too: "COc1ccc(C(=O)Nc2nonc2-c2ccc(OC)c(OC)c2)cc1Cl"
*A* 13

*Q* Next compound up: "COc1ccccc1NC1=C(N2CCCCC2)C(=O)c2ccccc2C1=O"
*A* 22

*Q* Same thing, different compound: "COc1cc(-c2nc(-c3ccccc3)c(-c3ccccc3)[nH]2)cc(OC)c1O"
*A* 88

*Q* Thanks! And "CCN1CCN(Cc2ccc(NC(=O)c3cc4ccc5cccnc5c4[nH]3)cc2)CC1" ?
*A* 38

*Q* Repeat with "Cc1cc(C=C2SC(=Nc3ccccc3)N(C3CCCC3)C2=O)c(C)n1-c1ccc(Cl)cc1"
*A* 8

*Q* One more compound: CCCCCCC(O)(c1ccc(F)cc1)C(CN1CCOCC1)c1ccccc1.Cl (stereo not drawn)
*A* 3

*Q* Consider next the compound COc1ccc(C(C)=O)cc1N1C(=O)C2C(C1=O)C1(c3ccccc3)C(=O)C2(c2ccccc2)C(c2ccc(C)cc2)=C1c1ccc(C)cc1 (stereo not drawn) in the same way.
*A* 2

*Q* Please answer likewise for CCOc1c(Cl)cc(CNC(C)C(O)c2ccccc2)cc1OC (stereo not drawn)
*A* 0

*Q* Try this compound too: "CCc1c(C)c(=N)c2ccccc2n1C.I"
*A* 30

*Q* And for "CC(C)OCc1cc(CN2CCN(c3cccc(Cl)c3)CC2)c(O)c2ncccc12" ?
*A* 19

*Q* Next record, please: "CCc1ccc(Nc2cc(C)c3ccc(O)cc3n2)cc1.Cl"
*A* 101
